The measurements presented in this section are drawn from patent US9605005B2.

Test system: REL-A (p65) nuclear translocation, HeLa cells
ASSAY_PROCEDURE: REL-A (p65) nuclear translocation assay in HeLa cells (classical NF-kB signaling, TNF-α stimulated)
Type: cell-based
CONDITION_LABEL: Homo sapiens, 0.5 h; HeLa cells, 10 ng/mL TNF-α for 30 minutes; read-out: REL-A HeLa Transloc Assay (IC50)
RESULT_TYPE: IC50 (µM)
Answers are plain numbers, in µM.

Here's what some known entries look like.
COc1cc2c(C(N)=O)nn(-c3cccc(C#C[C@]4(O)CCN(C)C4=O)c3)c2nn1 [Compound 173] ... 2
CN1CC[C@@](O)(C#Cc2cccc(-n3nc(C(N)=O)c4ccncc43)c2)C1=O [Compound 148] ... 20
Cc1nc2c(s1)c(C(N)=O)nn2-c1cccc(C#C[C@]2(O)CCN(C)C2=O)c1 [Compound 25] ... 20
Cc1cc([C@](C)(O)C#Cc2ccnc(-n3nc(C(N)=O)c4c3CCCC4)c2)no1 [Compound 60] ... 20
CN1CC[C@@](O)(C#Cc2cccc(-n3nc(C(N)=O)c4cc(CO)ccc43)c2)C1=O [Compound 35] ... 20

// each listed compound needs a value for IC50
1. CCOC(=O)N1CCc2c(c(C(N)=O)nn2-c2cc(C#C[C@]3(O)CCN(C)C3=O)ccn2)C1 [Compound 165]
2. COc1cc(C#C[C@]2(O)CCN(C)C2=O)cc(-n2nc(C(N)=O)c3cccnc32)c1 [Compound 73]

Result:
1. 20
2. 20

Take each entry in turn and give its IC50.
1. CN1CC[C@@](O)(C#Cc2cccc(-n3nc(C(N)=O)c4c3CCN(c3ccncn3)C4)c2)C1=O [Compound 120]
2. NC(=O)c1nn(-c2cc(C#C[C@]3(O)CCNC3=O)ccn2)c2cc(F)ccc12 [Compound 71]
3. CN1CC[C@@](O)(C#Cc2cccc(-n3nc(C(N)=O)c4ccc(Cl)nc43)c2)C1=O [Compound 153]
4. CN1CC[C@@](O)(C#Cc2ccnc(-n3nc(C(N)=O)c4c(F)cccc43)c2)C1=O [Compound 10]

Result:
1: 20; 2: 20; 3: 2; 4: 20

Items follow; give IC50 for each.
1. CN1CC[C@@](O)(C#Cc2ccnc(-n3nc(C(N)=O)c4c3CCCC4)c2)C1=O [Compound 51]
2. CN1CC[C@@](O)(C#Cc2cccc(-n3nc(C(N)=O)c4c3CCCC4)c2)C1=O [Compound 57]
3. CN1CC[C@@](O)(C#Cc2cccc(-n3nc(C(N)=O)c4cc(F)ccc43)c2)C1=O [Compound 13]
4. CN1CC[C@@](O)(C#Cc2cccc(-n3nc(C(N)=O)c4cnc(Cl)cc43)c2)C1=O [Compound 76]

Result:
1: 7.19; 2: 20; 3: 20; 4: 8

* * *

Tested on: p52 (NF-kB2) nuclear translocation, HeLa cells
ASSAY_PROCEDURE: p52 (NF-kB2) nuclear translocation assay in HeLa cells (non-classical NF-kB signaling, anti-lymphotoxin beta receptor antibody stimulated)
Type: cell-based
CONDITION_LABEL: Homo sapiens, 100 ng/mL anti-lymphotoxin beta receptor antibody for 5 hours, read-out: p52 HeLa Transloc Assay (IC50)
RESULT_TYPE: pIC50
Numbers only, as −log10 of the molar value.

CN1CC[C@@](O)(C#Cc2cccc(-c3ccn4c(C(N)=O)nc(-c5cccc(C#C[C@]6(O)CCN(C)C6=O)c5)c4c3)c2)C1=O [Compound 95] ... 7.06
CN1CC[C@@](O)(C#Cc2cccc(-c3csc(C(N)=O)n3)c2)C1=O [Compound 89] ... 6.65
CN1CC[C@@](O)(C#Cc2cccc(-n3nc(C(N)=O)c4cnccc43)c2)C1=O [Compound 132] ... 7.05
CN1CC[C@@](O)(C#Cc2cccc(-n3nc(C(N)=O)c4ccc(Cl)nc43)c2)C1=O [Compound 153] ... 6.88
CCOc1cc2c(cn1)c(C(N)=O)nn2-c1cccc(C#C[C@]2(O)CCN(C)C2=O)c1 [Compound 136] ... 7.14
COc1cc2c(C(N)=O)nn(-c3cccc(C#C[C@]4(O)CCN(C)C4=O)c3)c2nn1 [Compound 173] ... 6.75
CN1CC[C@@](O)(C#Cc2cccc(-c3nc(C(N)=O)n4ccc(Cl)cc34)c2)C1=O [Compound 94] ... 8.14
CN1CC[C@@](O)(C#Cc2cc(-n3nc(C(N)=O)c4cccnc43)ccc2F)C1=O [Compound 31] ... 7.17
Cc1cc2c(cn1)c(C(N)=O)nn2-c1cccc(C#C[C@]2(O)CCN(C)C2=O)c1 [Compound 131] ... 7.06
CN1CC[C@@](O)(C#Cc2cc(F)cc(-n3nc(C(N)=O)c4cccnc43)c2)C1=O [Compound 18] ... 6.86

Please give pIC50 for each item listed below.
1. CCNc1nccc2c1c(C(N)=O)nn2-c1cccc(C#C[C@]2(O)CCN(C)C2=O)c1 [Compound 129]
2. CN1CC[C@@](O)(C#Cc2cccc(-c3nc(C(N)=O)n4ccc(C#N)cc34)c2)C1=O [Compound 90]
3. Cc1nnc([C@](C)(O)C#Cc2cccc(-n3nc(C(N)=O)c4ccccc43)c2)o1 [Compound 26]
4. CN1CC[C@@](O)(C#Cc2ccnc(-n3nc(C(N)=O)c4c3CCCC4)c2)C1=O [Compound 51]
5. CN1CC[C@@](O)(C#Cc2ccnc(-n3nc(C(N)=O)c4c(F)cccc43)c2)C1=O [Compound 10]
6. CN1CC[C@@](O)(C#Cc2cccc(-n3nc(C(N)=O)c4c3COCC4)c2)C1=O [Compound 69]

Result:
1. 8.09
2. 7.20
3. 5.95
4. 6.65
5. 7.18
6. 6.02
